- protocol_description: Inhibition of […] BRD4 bromodomain 1 incubated for 60 mins by TR-FRET assay
Hi there, I'd appreciate the recorded IC50 for every entry that follows.
Number only, in nM; omit the unit.

State, in one line, measured IC50 of `Cc1nnc2n1-c1cnc(Nc3ccc(N)cc3)nc1N(C1CCCC1)C2`
79

Let me know recorded IC50 for `Cc1cccc(Nc2ncc3c(n2)N(C2CCCC2)Cc2nnc(C)n2-3)c1` , thanks.
1560

Look up and report measured IC50 for this entry: `COc1ccc(Nc2ncc3c(n2)N(C2CCCC2)Cc2nnc(C)n2-3)cc1OC`
220

For `Cc1nnc2n1-c1cnc(Nc3ccc(Cl)cc3)nc1N(C1CCCC1)C2` , write its IC50.
1540
